target: CDPK1 T145G (Plasmodium falciparum, UniProt P62344, T145G)
Construct: PfCDPK1 and PfCDPK1 T145G proteins were produced using methods described elsewhere
Sequence (P62344 whole entry T145G): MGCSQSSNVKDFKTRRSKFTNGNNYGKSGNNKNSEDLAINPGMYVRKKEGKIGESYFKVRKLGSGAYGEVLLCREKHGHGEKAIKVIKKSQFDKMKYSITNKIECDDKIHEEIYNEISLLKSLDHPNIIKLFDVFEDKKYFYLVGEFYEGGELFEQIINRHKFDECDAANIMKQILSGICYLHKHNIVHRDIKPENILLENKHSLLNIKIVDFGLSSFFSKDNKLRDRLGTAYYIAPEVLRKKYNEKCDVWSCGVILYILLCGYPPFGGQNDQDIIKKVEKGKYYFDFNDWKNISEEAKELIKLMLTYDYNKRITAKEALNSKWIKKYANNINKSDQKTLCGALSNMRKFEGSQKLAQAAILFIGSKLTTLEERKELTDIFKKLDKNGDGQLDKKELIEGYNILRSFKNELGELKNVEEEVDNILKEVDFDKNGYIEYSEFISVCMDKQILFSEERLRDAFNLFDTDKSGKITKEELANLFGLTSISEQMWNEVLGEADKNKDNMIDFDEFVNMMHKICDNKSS
assay: ParM ADP biosensor assay, CDPK1 T145G
endpoint-name: pIC50
// scale note: pIC50 = -log10(conc_M); give the bare number

Qu. Return value of pIC50 for input CC(C)(C)n1nc(-c2cccc3ccccc23)c2c(N)ncnc21 , no commentary.
Ans. 6.82

====

target: PfPKG (Plasmodium falciparum)
Construct: plasmids (pTrcHisC) encoding full-length PfPKG and PfPKG T618Q with N-terminal His tags; His tag (N); made in house; host or cells: E. coli Rosetta2(DE3)
assay: Microfluidic fluorescent shift assay of cGMP-dependent protein kinase activity
Type: biochemical
run-conditions: read-out: Enzyme inhibition IC50, PKG
// reported IC50 per item
// return numeric value only (unit: nM, not printed)

compound: Fc1cccnc1Nc1ncc(-c2cnc3ccc(NC4CCC(N5CCNCC5)CC4)nn23)cn1 (stereo not drawn) [Compound 28]
target: PfPKG (Plasmodium falciparum)
endpoint-name: IC50
numeric-result: 3

Now for the compound whose IC50 we want.
Qu. Given the compound CN1CCC(CNc2ccc3ncc(-c4cnc(Nc5ncccc5F)nc4)n3n2)CC1 [Compound 38] , write its reported IC50.
Ans. 4

====

System: 3D7 CDPK1 T145T-HA
assay: SYBR green assay, 3D7 CDPK1 T145T-HA line
Assay type: cell-based
run-conditions: Plasmodium falciparum, 3D7, read-out: EC50, 3D7 CDPK1 T145T-HA
Experimental: Aliquots of 100 μl of P. falciparum cultures 24 h after erythrocyte invasion were transferred into 96-well culture dishes. Cells were incubated with inhibitors for 48 or 96 h (starting parasitemias were 0.3% and 0.03%, respectively). […] After incubation in the dark for 2 h, fluorescence of the samples was determined using a FLUOStar Omega plate reader (BMG Labtech) with excitation and emission filters of 485 nm and 520 nm, respectively. […]
The molecules listed here are annotated with their pEC50.
# log scale: pEC50 equals minus log10 of the concentration in mol/L

query-smiles: CC(C)(C)n1nc(-c2cccc3ccccc23)c2c(N)ncnc21
pEC50: 4.85

# context switch: different molecule, same pEC50
Qu. # return recorded pEC50 for entry CC(C)(C)n1nc(Cc2cccc3ccccc23)c2c(N)ncnc21
Ans. 4.94

====

System: 3D7 PKG T618Q
assay: microbe, parasite or virus in culture
Format: cell-based, Plasmodium falciparum
run-conditions: Table S2
Ratio 3D7 PKG T618Q/3D7 listing for selected compounds.
Give only the figure.

Qu. Read the entry CC(C)CCNc1ccc(-c2cnc3ccc(NC4CCN(C)C4)nn23)cn1 (stereo not drawn) [Compound 22] and write its reported Ratio 3D7 PKG T618Q/3D7.
Ans. 1

====

compounds and their reported Selectivity PKG T618Q/PKG
target: PfPKG T618Q (Plasmodium falciparum, UniProt Q8I719, T618Q)
Construct: plasmids (pTrcHisC) encoding full-length PfPKG and PfPKG T618Q with N-terminal His tags; His tag (N); made in house; host or cells: E. coli Rosetta2(DE3)
Sequence (Q8I719 whole entry T618Q): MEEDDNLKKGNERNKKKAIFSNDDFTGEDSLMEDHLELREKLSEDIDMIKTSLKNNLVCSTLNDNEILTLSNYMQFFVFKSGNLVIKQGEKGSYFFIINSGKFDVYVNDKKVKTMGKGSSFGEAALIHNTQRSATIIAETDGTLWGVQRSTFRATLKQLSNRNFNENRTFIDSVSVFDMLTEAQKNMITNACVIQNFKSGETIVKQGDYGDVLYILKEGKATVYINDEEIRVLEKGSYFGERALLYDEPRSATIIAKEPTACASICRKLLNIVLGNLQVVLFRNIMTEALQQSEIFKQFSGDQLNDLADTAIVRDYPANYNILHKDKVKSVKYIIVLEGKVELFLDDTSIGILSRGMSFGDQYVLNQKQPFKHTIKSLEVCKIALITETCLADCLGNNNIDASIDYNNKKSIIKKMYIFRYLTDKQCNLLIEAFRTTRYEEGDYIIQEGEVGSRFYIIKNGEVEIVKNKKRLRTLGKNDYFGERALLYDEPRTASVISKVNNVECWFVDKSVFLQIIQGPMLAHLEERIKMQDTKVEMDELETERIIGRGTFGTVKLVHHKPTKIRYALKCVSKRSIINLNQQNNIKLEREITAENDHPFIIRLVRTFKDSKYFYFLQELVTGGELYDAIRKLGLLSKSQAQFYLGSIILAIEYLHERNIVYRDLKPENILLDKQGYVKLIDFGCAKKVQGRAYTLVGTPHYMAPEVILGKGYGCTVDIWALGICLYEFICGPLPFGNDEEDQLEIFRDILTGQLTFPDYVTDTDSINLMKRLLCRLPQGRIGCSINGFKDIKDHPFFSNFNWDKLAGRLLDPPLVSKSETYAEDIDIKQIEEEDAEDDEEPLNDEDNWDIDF
assay: biochemical
Assay type: biochemical
run-conditions: Table S2
Field format: numeric only.

Recorded Selectivity PKG T618Q/PKG, per entry:
compound: CN(C)C1CCN(c2ccc3ncc(-c4cnc(Nc5ncccc5F)nc4)n3n2)C1 (stereo not shown)
Selectivity PKG T618Q/PKG: 10653

compound: CC(C)CCNc1ncc(-c2cnc3ccc(NC4CCNCC4)nn23)cn1
Selectivity PKG T618Q/PKG: 10

compound: CN1CCC(Nc2ccc3ncc(-c4cc(F)c(Nc5ncccc5F)c(F)c4)n3n2)CC1
Selectivity PKG T618Q/PKG: 272

compound: CN1CCC(CNc2ccc3ncc(-c4cnc(Nc5ncccc5F)nc4)n3n2)CC1
Selectivity PKG T618Q/PKG: 12187

compound: Fc1cccnc1Nc1ccc(-c2cnc3ccc(NC4CCNCC4)nn23)cc1
Selectivity PKG T618Q/PKG: 23

compound: Fc1cc(-c2cnc3ccc(NC4CCNCC4)nn23)ccc1Nc1ccccn1
Selectivity PKG T618Q/PKG: 44

# ---- query compound ----
Qu. Quote Selectivity PKG T618Q/PKG reported for Fc1cc(-c2cnc3ccc(NC4CCNCC4)nn23)cnc1Nc1ccccn1 please.
Ans. 182
